- ASSAY: yeast display, Sf9 membrane polyspecificity reagent, FACS + sequencing; frameworks hold sequencing errors
MEASURE NAME: polyreactivity (PSR sort gate)

{"columns": ["SEQUENCE TEXT", "VAL"],
 "data": [
  ["QVQLVESGGGLVQAGGSLRLSCASSGRTIDGYAMGWYRQAPGKERELVATITWSGDSTYYADSVKGRFTISRDNAKNTVYLKMNSLKPEDTSVYYCAADSYYAYPYGYGYWGQGTQVTVSS", "high polyreactivity"],
  ["QVQLVESGGGLVQAGGSLRLSCAASGRTFYDYAMGWYRQAPGKERELVAAITSGGSTNYADSVKGRFTISRDNAKNTVYLQMNSLKPEDTAGYYCAADDFYVWGFDMNYWGQGTQVTVSS", "high polyreactivity"],
  ["QVQLVESGGGLVQAGGSLRLSCAASGRTLDWNAMGWYRQAPGKERELVAAISWSGDSTYYADSVKGRFTISRDNAKNTVYLQMNSLKPEDTAVYYCAARYGRSWGRGYGYWGQGTQVTVSS", "low polyreactivity"],
  ["QVQLVESGGGLVQAGGSLRFSSPASGGTFFVNAMGWYRQAPGKERELVASITLSGGSSYYADSVKGRFTISRDNAKNTVYLQMNSLKPEDTAVYYCAKGWTRDNEREREDEYWGQGTQGTVSS", "low polyreactivity"]
]}

Here's the next entry for you.
Data request: Answer with reported polyreactivity (PSR sort gate) of QVQLVESGGGLVQAGGSLSLSCAASGRTFKRYAMGWYRQAPGKERELVAAITSSGTSTYADSVKGRFTISRDNAKNTVYFQMNSLKPEDTAVYYCNRGYFNSRTPTFDYWGQGTQVTVSS
Data returned: low polyreactivity
